Test: HUVEC growth inhibition – cell-based, human, primary screen (AID 575);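 further: 100% = median of untreated cell wells with 0.1% DMSO on each plate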
Setup Conditions: HUVEC proliferation, CellTiter-Glo luminescence, 72 h; at 10 µM; stronger effect = lower value
Catalogue of viability readings, one per entry.
A number alone suffices; assume %.

Guide cases for viability, answers given:
CCOC(=O)N1CCN(c2cc(=O)n(-c3cccc(Br)c3)c(=O)[nH]2)CC1; 94.4
CCCn1c(=O)c(C(=O)NCc2ccccn2)c(O)c2ccccc21; 101
Cc1nc2ccccc2c2oc(C(=O)N3CCN(C(=O)c4ccco4)CC3)cc12; 87.4
CC1=C(C(N)=O)C(c2ccncc2)n2nc(-c3ccccc3Cl)nc2N1 (stereo unspecified); 90.1
CCCOC(=O)c1[nH]c2c(c1C)C(=O)CC(c1cc(OC)c(OC)c(OC)c1)C2 (stereo unspecified); 88.7
CCN(C(=O)c1cc(Cl)ccc1OC)c1ccccc1; 95.6
Cc1noc(/C=C/N(C)C)c1S(=O)(=O)N1CCCC(C(=O)N2CCCCC2)C1 (stereo unspecified); 95.9
CC(=O)C1=C(N2CCCCC2)CCC1=O; 109

Ask: Please report the measured viability for O=C(Nc1ccc2c(c1)OCCO2)c1cnc2n(c1=O)CCS2
Result: 105

Ask: Please report the measured viability for CCn1cc(C(=O)NCC2COc3ccccc3O2)c2cc(OC)c(OC)cc2c1=O (stereo unspecified)
Result: 77.5

Ask: Please report the measured viability for Cc1ccc(S(=O)(=O)N2CCC(C(=O)N3CCN(Cc4ccccc4)CC3)CC2)cc1
Result: 100

* * *

Test: reduced viability of SK-BR-3 breast cancer cells – cell-based, 24 h, human, pilot screen (AID 572);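 further: compound exposure lasted between 18 and 24 h rather than exactly 24 h; 100% = carrier-treated control wells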
Setup Conditions: SK-BR-3 viability, CellTiter-Glo luminescence, at 10 µM, stronger effect = lower value
Recorded Metric: viability (%)
A number alone suffices; assume %.

CCC(C)NC(=O)c1cn(CC)c2ccc(S(=O)(=O)N(C)C)cc2c1=O (configuration not stated); 87
COc1cccc(NC(=O)c2ccco2)c1; 99
Cc1occc1C(=O)N1CCN(c2ncccn2)CC1; 87

Ask: Please report the measured viability for COc1ccc2c(c1OC)C(=O)OC2CC(=O)c1ccc(O)cc1 (configuration not stated)
Result: 100

Ask: Please report the measured viability for CC1CCCCN1CCNC(=O)C1CCN(S(=O)(=O)c2cccc3cccnc23)CC1 (configuration not stated)
Result: 97

Ask: Please report the measured viability for COc1cccc(C2=NOC(C(=O)N3CCN(c4ccccc4)CC3)C2)c1OC (configuration not stated)
Result: 104

Ask: Please report the measured viability for CCCCc1ccc(NC(=O)C2CCCO2)cc1 (configuration not stated)
Result: 92

Ask: Please report the measured viability for Cc1nnc2n(-c3ccc(Cl)cc3)c(=O)c3c4c(sc3n12)CN(C)CC4
Result: 84

Ask: Please report the measured viability for CCSC1=C(C#N)C(c2ccccc2OC)CC(=O)N1 (configuration not stated)
Result: 92

Ask: Please report the measured viability for CCCS(=O)(=O)N1CCN(C(=O)c2cccnc2)CC1
Result: 97

Ask: Please report the measured viability for CC(C)C(CO)NC(=O)CC(=O)NC(CO)C(C)C (configuration not stated)
Result: 93

Ask: Please report the measured viability for Cn1nnnc1SCC(=O)Nc1ccccc1-c1ccccc1
Result: 100

* * *

Test: H69AR cell proliferation blockers – human, duplicate replicates, primary screen (AID 580);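 further: 100% = mean luminescence of untreated wells and 0% = no signal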
Setup Conditions: H69AR lung tumor cells viability, ATP luminescence, 72 h; at 10 µM; stronger effect = lower value
Catalogue of viability readings, one per entry.
A number alone suffices; assume %.

Ask: Please report the measured viability for COc1cccc(C2C(C(N)=O)=C(C)Nc3nc(-c4ccccc4Cl)nn32)c1 (stereo not drawn)
Result: 92.1

Ask: Please report the measured viability for O=C(OCC(=O)c1ccc[nH]1)c1ccc(S(=O)(=O)N2CCCCC2)cc1
Result: 97.8

* * *

Test: viability of PTEN-null HCT116 cells – cell-based, HCT116 clonal line, CellTiter-Glo, pilot screen (AID 824);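 further: 0% = 20 µM Hyamine control and 100% = vehicle cell control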
Setup Conditions: HCT116 PTEN-deleted viability, 60 h, at 10 µM, stronger effect = lower value
Records with an inconclusive call do not appear.
Recorded Metric: viability (%)
A number alone suffices; assume %.

COc1cccc(-n2c(Cc3cc(=O)[nH]c(=O)[nH]3)nnc2SC(C)C)c1; 100
COc1ccc(-n2ncc3c(N4CCC(C)CC4)ncnc32)cc1; 93.6
Cn1c(=O)c2c(nc(SCCOc3ccc4ccc(=O)oc4c3)n2C)n(C)c1=O; 103
Cc1ccc(C2c3c(oc4ccccc4c3=O)C(=O)N2c2nnc(C(C)C)s2)o1 (stereo not given); 98.1

Ask: Please report the measured viability for COCCn1c(SCC(=O)N2CCc3ccccc32)nc2c(c1=O)SC(C)C2 (stereo not given)
Result: 94.3

Ask: Please report the measured viability for COc1ccccc1C(=O)NC(CCSC)C(=O)NCC(c1ccco1)N(C)C (stereo not given)
Result: 89.5

Ask: Please report the measured viability for CCN1CCN(CCCNC(=O)c2cc3sccc3n2CC)CC1
Result: 98.6

Ask: Please report the measured viability for CCCCN(C)C(=O)C(Cc1ccccc1)NS(=O)(=O)c1ccc2c(c1)CCC(=O)N2 (stereo not given)
Result: 90.2

Ask: Please report the measured viability for Cc1cc(NC(=O)CSc2cn(CCNC(=O)c3ccc(Cl)cc3)c3ccccc23)no1
Result: 57.3

Ask: Please report the measured viability for Cc1cc2cc(CCNC(=O)CC(C)C)c(=O)[nH]c2cc1C
Result: 97.7

* * *

Test: viability of HCT116 without oncogenic beta-catenin – human colon tumor cells, pilot screen (AID 823);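 further: 0% = wells killed by 20 µM Hyamine and 100% = untreated DMSO cell wells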
Setup Conditions: HCT116 beta-catenin knockout viability, CellTiter-Glo, 60 h; at 10 µM; stronger effect = lower value
Records with an inconclusive call do not appear.
Recorded Metric: viability (%)
A number alone suffices; assume %.

CN1CCc2c(sc3c2C(=O)NC(c2ccc(-c4cccc(Cl)c4)o2)N3)C1 (stereo unspecified); 97.6
Cc1cc(C)n2c(SCC(=O)Nc3cc(C)on3)nnc2n1; 102
CCn1cc(C(=O)NCCCOC)c(=O)c2cc(S(=O)(=O)N(C)C)ccc21; 97.6
O=C(Cn1ncc2c1-c1ccccc1OC2)N1CCc2ccccc21; 93.4
CC1CCCCN1S(=O)(=O)c1cccc2cccnc12 (stereo unspecified); 96.8

Ask: Please report the measured viability for CCOC(=O)N1CCC(N2CC34C=CC(O3)C(C(=O)Nc3ccc(C)cc3)C4C2=O)CC1 (stereo unspecified)
Result: 100

Ask: Please report the measured viability for COCc1cc(C)nc(Nc2ccc(C)cc2C)c1C#N
Result: 97.2

Ask: Please report the measured viability for COc1cc(Cl)c(S(=O)(=O)NCc2cccnc2)cc1Cl
Result: 99.5

Ask: Please report the measured viability for CCOc1cccc(NC(=O)Cc2cccs2)c1
Result: 94.1

Ask: Please report the measured viability for CC1CCN(C(=O)CSc2nc3c(cnn3-c3ccccc3)c(=O)[nH]2)CC1
Result: 98.3

Ask: Please report the measured viability for NS(=O)(=O)c1ccc(CCNC2CC(=O)N(CCc3ccccc3)C2=O)cc1 (stereo unspecified)
Result: 98

* * *

Test: viability of HCT116 without oncogenic beta-catenin – human colon tumor cells, pilot screen (AID 823);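 further: 0% = wells killed by 20 µM Hyamine and 100% = untreated DMSO cell wells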
Setup Conditions: HCT116 beta-catenin knockout viability, CellTiter-Glo, 60 h; at 10 µM
Results filed as inconclusive are left out. Calls of active or inactive are those of the source.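 The calls were made as follows: active = cell viability at or below a set limit in both duplicate runs, the limit being the all-compound median minus 4 SD (cut at about 23% in these data, passing the limit was not always enough); inconclusive = no clear call, values can overlap the other calls; inactive = the rest.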
Choose the fitting class; nothing outside 1 for active, 0 for inactive is accepted.

Recorded results for 3 compounds are shown here.
O=C(CC1NC(=O)NC1=O)NC1(C(=O)NC2CCCCC2)CCCCC1 (stereo unspecified); 0
CCN(CC)c1ccc(NC(=O)CN2C(=O)CC(C)(C)S(=O)(=O)c3ccccc32)c(C)c1; 0
Fc1ccc(-c2nnc3ccc(N4CCCC4)nn23)cc1; 0

Ask: Query: recorded result category for O=C(Cn1cc2c(n1)CCCCC2)N1CCc2ccccc2C1 in this test
Result: 0

Ask: Query: recorded result category for Cc1oc2cc(O)ccc2c(=O)c1Oc1ccccc1Br in this test
Result: 0

Ask: Query: recorded result category for CCOC(=O)C1=C(C)NC(=O)NC1c1ccc(Br)s1 (stereo unspecified) in this test
Result: 0

Ask: Query: recorded result category for COc1ccc(OC)c(C(=O)c2ccc(C(=O)O)cc2)c1 in this test
Result: 0

Ask: Query: recorded result category for CCOCCCNC(=O)C(c1ccccc1)N(Cc1ccc2c(c1)OCO2)C(=O)CNC(C)=O (stereo unspecified) in this test
Result: 0

Ask: Query: recorded result category for Cc1ccc(-c2oc3ccccc3c(=O)c2O)cc1 in this test
Result: 1

Ask: Query: recorded result category for O=C(Nc1c(F)cc(F)cc1Br)c1cc(-c2ccc(O)cc2)on1 in this test
Result: 0

Ask: Query: recorded result category for CC1Cc2nc(SCC(N)=O)n(Cc3ccccc3)c(=O)c2S1 (stereo unspecified) in this test
Result: 0

* * *

Test: MRP1 drug-resistance reversers in H69AR cells – cell-based, doxorubicin co-treatment, pilot screen (AID 601)
Setup Conditions: H69AR cells + 2 uM doxorubicin, CellTiter-Glo, 72 h; measured here: viability with 2 uM doxorubicin; at 10 µM; stronger effect = lower value
Catalogue of viability readings, one per entry.
A number alone suffices; assume %.

Cn1nnnc1SCC(=O)Nc1ccccc1-c1ccccc1; 81.6
Cc1nc(NCc2ccc3c(c2)OCO3)c2oc3ccccc3c2n1; 107
Cn1cccc1Cc1nnc(SCC(=O)NCc2ccc(F)cc2)n1-c1ccc(F)cc1; 93
CCCNC(=O)CS(=O)(=O)Cc1nc(-c2cccc(OC)c2)oc1C; 91.7
Cc1ccccc1CSc1nnc(C)c(=O)[nH]1; 92.5

The record that follows has no viability shown yet.
Ask: Please report the measured viability for COc1cc(NC(=O)CC(C)C)ccc1NC(=O)c1ccco1
Result: 93.1
